Conditions: in ethanol, 318.15 K
metric name: solubility (mole fraction)
Answer with the value's number alone.

Memo: COc1ccc2nc(S(=O)Cc3ncc(C)c(OC)c3C)[nH]c2c1 (stereo unspecified) , reported solubility (mole fraction): 0.00702

* * *

Conditions: in n-butanol, 323.15 K
metric name: solubility (mole fraction)
Answer with the value's number alone.

Memo: COc1ccc2nc(S(=O)Cc3ncc(C)c(OC)c3C)[nH]c2c1 (stereo unspecified) , reported solubility (mole fraction): 0.00779

* * *

Conditions: in methanol, 313.15 K
metric name: solubility (mole fraction)
Answer with the value's number alone.

Memo: COc1ccc2nc(S(=O)Cc3ncc(C)c(OC)c3C)[nH]c2c1 (stereo unspecified) , reported solubility (mole fraction): 0.0106

* * *

Settings: in acetonitrile, 283.15 K
metric name: solubility (mole fraction)
Answer with the value's number alone.

Memo: COc1ccc2nc(S(=O)Cc3ncc(C)c(OC)c3C)[nH]c2c1 (stereo unspecified) , reported solubility (mole fraction): 0.00143

* * *

Conditions: in ethyl acetate, 283.15 K
metric name: solubility (mole fraction)
Answer with the value's number alone.

Memo: COc1ccc2nc(S(=O)Cc3ncc(C)c(OC)c3C)[nH]c2c1 (stereo unspecified) , reported solubility (mole fraction): 0.00112

* * *

Conditions: in acetone, 318.15 K
metric name: solubility (mole fraction)

Memo: COc1ccc2nc(S(=O)Cc3ncc(C)c(OC)c3C)[nH]c2c1 (stereo unspecified) , reported solubility (mole fraction): 0.00637

* * *

Conditions: in acetone, 283.15 K
metric name: solubility (mole fraction)
Answer with the value's number alone.

Memo: COc1ccc2nc(S(=O)Cc3ncc(C)c(OC)c3C)[nH]c2c1 (stereo unspecified) , reported solubility (mole fraction): 0.00173

* * *

Settings: in n-butanol, 333.15 K
metric name: solubility (mole fraction)
Answer with the value's number alone.

Memo: COc1ccc2nc(S(=O)Cc3ncc(C)c(OC)c3C)[nH]c2c1 (stereo unspecified) , reported solubility (mole fraction): 0.0103

* * *

Conditions: in methanol, 288.15 K
metric name: solubility (mole fraction)
Answer with the value's number alone.

Memo: COc1ccc2nc(S(=O)Cc3ncc(C)c(OC)c3C)[nH]c2c1 (stereo unspecified) , reported solubility (mole fraction): 0.00348

* * *

Conditions: in methanol, 308.15 K
metric name: solubility (mole fraction)
Answer with the value's number alone.

Memo: COc1ccc2nc(S(=O)Cc3ncc(C)c(OC)c3C)[nH]c2c1 (stereo unspecified) , reported solubility (mole fraction): 0.00857

* * *

Settings: in ethanol, 308.15 K
metric name: solubility (mole fraction)
Answer with the value's number alone.

Memo: COc1ccc2nc(S(=O)Cc3ncc(C)c(OC)c3C)[nH]c2c1 (stereo unspecified) , reported solubility (mole fraction): 0.00509

* * *

Conditions: in ethanol, 333.15 K
metric name: solubility (mole fraction)
Answer with the value's number alone.

Memo: COc1ccc2nc(S(=O)Cc3ncc(C)c(OC)c3C)[nH]c2c1 (stereo unspecified) , reported solubility (mole fraction): 0.0113

* * *

Conditions: in acetone, 323.15 K
metric name: solubility (mole fraction)
Answer with the value's number alone.

Memo: COc1ccc2nc(S(=O)Cc3ncc(C)c(OC)c3C)[nH]c2c1 (stereo unspecified) , reported solubility (mole fraction): 0.00739

* * *

Conditions: in methanol, 298.15 K
metric name: solubility (mole fraction)
Answer with the value's number alone.

Memo: COc1ccc2nc(S(=O)Cc3ncc(C)c(OC)c3C)[nH]c2c1 (stereo unspecified) , reported solubility (mole fraction): 0.00569

* * *

Settings: in acetonitrile, 313.15 K
metric name: solubility (mole fraction)
Answer with the value's number alone.

Memo: COc1ccc2nc(S(=O)Cc3ncc(C)c(OC)c3C)[nH]c2c1 (stereo unspecified) , reported solubility (mole fraction): 0.00513

* * *

Conditions: in water, 283.15 K
metric name: solubility (mole fraction)
Answer with the value's number alone.

Memo: COc1ccc2nc(S(=O)Cc3ncc(C)c(OC)c3C)[nH]c2c1 (stereo unspecified) , reported solubility (mole fraction): 5e-05

* * *

Conditions: in methanol, 278.15 K
metric name: solubility (mole fraction)
Answer with the value's number alone.

Memo: COc1ccc2nc(S(=O)Cc3ncc(C)c(OC)c3C)[nH]c2c1 (stereo unspecified) , reported solubility (mole fraction): 0.00206

* * *

Conditions: in methanol, 323.15 K
metric name: solubility (mole fraction)
Answer with the value's number alone.

Memo: COc1ccc2nc(S(=O)Cc3ncc(C)c(OC)c3C)[nH]c2c1 (stereo unspecified) , reported solubility (mole fraction): 0.0156

* * *

Details: in n-butanol, 318.15 K
metric name: solubility (mole fraction)
Answer with the value's number alone.

Memo: COc1ccc2nc(S(=O)Cc3ncc(C)c(OC)c3C)[nH]c2c1 (stereo unspecified) , reported solubility (mole fraction): 0.0065

* * *

Details: in acetonitrile, 288.15 K
metric name: solubility (mole fraction)
Answer with the value's number alone.

Memo: COc1ccc2nc(S(=O)Cc3ncc(C)c(OC)c3C)[nH]c2c1 (stereo unspecified) , reported solubility (mole fraction): 0.00182

* * *

Conditions: in acetone, 303.15 K
metric name: solubility (mole fraction)

Memo: COc1ccc2nc(S(=O)Cc3ncc(C)c(OC)c3C)[nH]c2c1 (stereo unspecified) , reported solubility (mole fraction): 0.00377

* * *

Settings: in n-butanol, 303.15 K
metric name: solubility (mole fraction)

Memo: COc1ccc2nc(S(=O)Cc3ncc(C)c(OC)c3C)[nH]c2c1 (stereo unspecified) , reported solubility (mole fraction): 0.0037

* * *

Settings: in water, 323.15 K
metric name: solubility (mole fraction)
Answer with the value's number alone.

Memo: COc1ccc2nc(S(=O)Cc3ncc(C)c(OC)c3C)[nH]c2c1 (stereo unspecified) , reported solubility (mole fraction): 0.00023

* * *

Details: in THF, 293.15 K
metric name: solubility (mole fraction)

Memo: COc1ccc2nc(S(=O)Cc3ncc(C)c(OC)c3C)[nH]c2c1 (stereo unspecified) , reported solubility (mole fraction): 0.0113

* * *

Settings: in water, 288.15 K
metric name: solubility (mole fraction)
Answer with the value's number alone.

Memo: COc1ccc2nc(S(=O)Cc3ncc(C)c(OC)c3C)[nH]c2c1 (stereo unspecified) , reported solubility (mole fraction): 6.15e-05

* * *

Details: in THF, 308.15 K
metric name: solubility (mole fraction)
Answer with the value's number alone.

Memo: COc1ccc2nc(S(=O)Cc3ncc(C)c(OC)c3C)[nH]c2c1 (stereo unspecified) , reported solubility (mole fraction): 0.0259

* * *

Settings: in acetone, 288.15 K
metric name: solubility (mole fraction)
Answer with the value's number alone.

Memo: COc1ccc2nc(S(=O)Cc3ncc(C)c(OC)c3C)[nH]c2c1 (stereo unspecified) , reported solubility (mole fraction): 0.00215

* * *

Settings: in ethyl acetate, 293.15 K
metric name: solubility (mole fraction)
Answer with the value's number alone.

Memo: COc1ccc2nc(S(=O)Cc3ncc(C)c(OC)c3C)[nH]c2c1 (stereo unspecified) , reported solubility (mole fraction): 0.00156

* * *

Conditions: in water, 278.15 K
metric name: solubility (mole fraction)

Memo: COc1ccc2nc(S(=O)Cc3ncc(C)c(OC)c3C)[nH]c2c1 (stereo unspecified) , reported solubility (mole fraction): 4.07e-05

* * *

Conditions: in n-butanol, 328.15 K
metric name: solubility (mole fraction)
Answer with the value's number alone.

Memo: COc1ccc2nc(S(=O)Cc3ncc(C)c(OC)c3C)[nH]c2c1 (stereo unspecified) , reported solubility (mole fraction): 0.00884

* * *

Details: in ethanol, 283.15 K
metric name: solubility (mole fraction)
Answer with the value's number alone.

Memo: COc1ccc2nc(S(=O)Cc3ncc(C)c(OC)c3C)[nH]c2c1 (stereo unspecified) , reported solubility (mole fraction): 0.00187

* * *

Settings: in THF, 298.15 K
metric name: solubility (mole fraction)
Answer with the value's number alone.

Memo: COc1ccc2nc(S(=O)Cc3ncc(C)c(OC)c3C)[nH]c2c1 (stereo unspecified) , reported solubility (mole fraction): 0.0146

* * *

Conditions: in acetone, 313.15 K
metric name: solubility (mole fraction)

Memo: COc1ccc2nc(S(=O)Cc3ncc(C)c(OC)c3C)[nH]c2c1 (stereo unspecified) , reported solubility (mole fraction): 0.00541

* * *

Conditions: in THF, 323.15 K
metric name: solubility (mole fraction)

Memo: COc1ccc2nc(S(=O)Cc3ncc(C)c(OC)c3C)[nH]c2c1 (stereo unspecified) , reported solubility (mole fraction): 0.0545

* * *

Conditions: in acetone, 293.15 K
metric name: solubility (mole fraction)
Answer with the value's number alone.

Memo: COc1ccc2nc(S(=O)Cc3ncc(C)c(OC)c3C)[nH]c2c1 (stereo unspecified) , reported solubility (mole fraction): 0.00265

* * *

Settings: in ethanol, 303.15 K
metric name: solubility (mole fraction)
Answer with the value's number alone.

Memo: COc1ccc2nc(S(=O)Cc3ncc(C)c(OC)c3C)[nH]c2c1 (stereo unspecified) , reported solubility (mole fraction): 0.00413

* * *

Conditions: in THF, 303.15 K
metric name: solubility (mole fraction)

Memo: COc1ccc2nc(S(=O)Cc3ncc(C)c(OC)c3C)[nH]c2c1 (stereo unspecified) , reported solubility (mole fraction): 0.0196
